Reference for the values: paper PMC5240567

# measuredOn: T1, PREP1HD (UniProt P55347 240-344)
# T1 sequence: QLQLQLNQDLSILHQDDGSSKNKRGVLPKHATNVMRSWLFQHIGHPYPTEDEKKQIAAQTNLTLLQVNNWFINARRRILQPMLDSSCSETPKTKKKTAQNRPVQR
# procedureText: fluorescence polarization; FP and EMSA: 20 mM Na/K phosphate pH 7.2, 150 mM NaCl, 5% glycerol, 1 mM TCEP, room temperature (FP 9 nM DNA, 30 min; EMSA gel run at 4 C in 0.5x TBE); NMR: 20
# conditionDescription: protein: recombinant; tags: GST cleaved (pGEX-6P); label: 5' 6-FAM (FP); unlabeled in EMSA and NMR
measurementKind: Kd (µM)
One number for each entry, in µM.

Documented Kd of PMH (dsDNA) DNA 1: AGTGATTGACAGATTC DNA 2: GAATCTGTCAATCACT : 15.4
